system: MCF7 breast; experiment: NCI-60 one-dose screen, 48 h (100 = growth as untreated, 0 = no growth, -100 = all killed); details: 10 µM unless noted
About 83,000 compounds went through this panel and 20% of them were active in at least one assay; those are over-represented in the sample as a whole.
The threshold is inclusive: growth of exactly 20% counts as 1.0; values below receive 0.0.

These solved cases illustrate the format of a correct answer.
- MOLECULE: "COc1ccc2cc(-c3cnc4nonc4n3)ccc2c1"
  EXPERIMENTAL SYSTEM: "MCF7 breast"
  ANSWER LABEL: 0.0
- MOLECULE: "CC1O[C@@H]2C[C@@](O)([C@H]1O)n1c3ccccc3c3c4c(c5c6ccccc6n2c5c31)C(=O)NC4=O (stereo not given in full)"
  EXPERIMENTAL SYSTEM: "MCF7 breast"
  ANSWER LABEL: 1.0
- MOLECULE: "C#CCOc1cccc(-c2ncc3cc(NC(=O)CCl)ccc3n2)c1"
  EXPERIMENTAL SYSTEM: "MCF7 breast"
  ANSWER LABEL: 0.0

## Input Exam item: decide whether the reported growth for O=C1CCCc2nc3sc4c(=O)n(-c5ccccc5Cl)nnc4c3cc21 is at least 20%.
## Output 1.0

## Input Exam item: decide whether the reported growth for COc1ccc(NC(=O)c2sc3nc4c(cc3c2N)CCCC4)cc1 is at least 20%.
## Output 0.0

## Input Exam item: decide whether the reported growth for Cc1ccc(-c2nc(C#N)c(S(=O)(=O)NCCO)o2)cc1 is at least 20%.
## Output 1.0

## Input Exam item: decide whether the reported growth for C=C(C)[C@@H]1CC[C@]2(CO)CC[C@]3(C)[C@H](CC[C@@H]4[C@@]5(C)CCC(NCCc6ccc(O)cc6)C(C)(C)[C@@H]5CC[C@]43C)[C@@H]12 (stereo not given in full) is at least 20%.
## Output 0.0

## Input Exam item: decide whether the reported growth for Nc1ccc([N+](=O)[O-])cc1N=C/C=C/c1ccccc1 is at least 20%.
## Output 1.0

## Input Exam item: decide whether the reported growth for CCCCCCCC/C=C\CCCCCCCCOc1ccc(CC(=O)NCC[N+](C)(C)C)cc1 is at least 20%.
## Output 1.0

Value source: PubChem BioAssay (NCI)
